Data origin: PubChem BioAssay AID517

test system: HUVEC TNFalpha-induced E-selectin immunofluorescence imaging; assay: E-selectin expression inhibitors, dose response, confirmation, imaging, HUVEC, immunofluorescence, TNFalpha stimulation (AID 517)
Active and inactive are the calls of the source.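 Rule for the calls: active = activity score of 15 or more, from fitted potency or summed per-dose inhibition z-scores, roughly IC50 of 5 µM; inactive = the rest.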
Classes used: Yes (active), No (inactive)

[
  {
    "MOLECULE": "CCn1c(=N)n(CC(=O)c2ccco2)c2ccccc21",
    "TARGET OF ASSAY": "HUVEC TNFalpha-induced E-selectin immunofluorescence imaging",
    "CATEGORY LABEL": "No"
  },
  {
    "MOLECULE": "COc1ccc(-c2nnc(-c3cccs3)o2)cc1OC",
    "TARGET OF ASSAY": "HUVEC TNFalpha-induced E-selectin immunofluorescence imaging",
    "CATEGORY LABEL": "No"
  },
  {
    "MOLECULE": "COc1ccc(CCn2c(O)c(C=NCc3cccnc3)c(=O)[nH]c2=O)cc1OC",
    "TARGET OF ASSAY": "HUVEC TNFalpha-induced E-selectin immunofluorescence imaging",
    "CATEGORY LABEL": "No"
  },
  {
    "MOLECULE": "O=c1c2ccccc2nc(SCc2cn3ccsc3n2)n1-c1ccc(F)cc1",
    "TARGET OF ASSAY": "HUVEC TNFalpha-induced E-selectin immunofluorescence imaging",
    "CATEGORY LABEL": "No"
  },
  {
    "MOLECULE": "FC(F)Oc1ccc(-c2csc(Cc3nnc4n3CCCCC4)n2)cc1",
    "TARGET OF ASSAY": "HUVEC TNFalpha-induced E-selectin immunofluorescence imaging",
    "CATEGORY LABEL": "No"
  },
  {
    "MOLECULE": "COC(=O)CCC(=O)Nc1cccc(Br)c1",
    "TARGET OF ASSAY": "HUVEC TNFalpha-induced E-selectin immunofluorescence imaging",
    "CATEGORY LABEL": "No"
  },
  {
    "MOLECULE": "Cc1nnc(SCCn2c(N3CC(C)CC(C)C3)nc3c2c(=O)n(C)c(=O)n3C)s1 (stereo not drawn)",
    "TARGET OF ASSAY": "HUVEC TNFalpha-induced E-selectin immunofluorescence imaging",
    "CATEGORY LABEL": "No"
  },
  {
    "MOLECULE": "COc1ccc(OC(=O)c2cc3ccccc3o2)cc1",
    "TARGET OF ASSAY": "HUVEC TNFalpha-induced E-selectin immunofluorescence imaging",
    "CATEGORY LABEL": "No"
  },
  {
    "MOLECULE": "Cc1ccc(Nc2nc(N)nc(CN3CCCCCC3)n2)cc1",
    "TARGET OF ASSAY": "HUVEC TNFalpha-induced E-selectin immunofluorescence imaging",
    "CATEGORY LABEL": "No"
  },
  {
    "MOLECULE": "N#Cc1c(NCc2ccccc2)ccnc1NCc1cccnc1",
    "TARGET OF ASSAY": "HUVEC TNFalpha-induced E-selectin immunofluorescence imaging",
    "CATEGORY LABEL": "No"
  },
  {
    "MOLECULE": "Cc1cc2c(cc1C)-c1nnnn1C(C)(C)C2",
    "TARGET OF ASSAY": "HUVEC TNFalpha-induced E-selectin immunofluorescence imaging",
    "CATEGORY LABEL": "No"
  },
  {
    "MOLECULE": "CC(C)Cn1c(=O)c(C(=O)Nc2ccccc2S(N)(=O)=O)c(O)c2ccccc21",
    "TARGET OF ASSAY": "HUVEC TNFalpha-induced E-selectin immunofluorescence imaging",
    "CATEGORY LABEL": "No"
  },
  {
    "MOLECULE": "CC1CCN(C(=O)CSc2nc3ccccc3[nH]2)CC1",
    "TARGET OF ASSAY": "HUVEC TNFalpha-induced E-selectin immunofluorescence imaging",
    "CATEGORY LABEL": "No"
  },
  {
    "MOLECULE": "COc1cccc2c1C(=O)c1c(O)c3c(c(O)c1C2=O)C[C@@](O)(C(=O)CO)C[C@@H]3O[C@H]1C[C@H](N)[C@H](O)[C@H](C)O1",
    "TARGET OF ASSAY": "HUVEC TNFalpha-induced E-selectin immunofluorescence imaging",
    "CATEGORY LABEL": "Yes"
  },
  {
    "MOLECULE": "CCN(CC)S(=O)(=O)c1ccc2[nH]cc(C(=O)NCCC3=CCCCC3)c(=O)c2c1",
    "TARGET OF ASSAY": "HUVEC TNFalpha-induced E-selectin immunofluorescence imaging",
    "CATEGORY LABEL": "No"
  },
  {
    "MOLECULE": "O=C(Cc1cccs1)NCc1ccc(F)cc1",
    "TARGET OF ASSAY": "HUVEC TNFalpha-induced E-selectin immunofluorescence imaging",
    "CATEGORY LABEL": "No"
  },
  {
    "MOLECULE": "COc1ccc(C(=O)CSc2nnc(C3CCCCC3)n2N)c(OC)c1",
    "TARGET OF ASSAY": "HUVEC TNFalpha-induced E-selectin immunofluorescence imaging",
    "CATEGORY LABEL": "No"
  },
  {
    "MOLECULE": "CN(CCc1ccccn1)c1ncnc2[nH]ncc12",
    "TARGET OF ASSAY": "HUVEC TNFalpha-induced E-selectin immunofluorescence imaging",
    "CATEGORY LABEL": "No"
  },
  {
    "MOLECULE": "CCN(CC(=O)NC(=O)NCc1ccco1)Cc1nc2ccccc2c(=O)[nH]1",
    "TARGET OF ASSAY": "HUVEC TNFalpha-induced E-selectin immunofluorescence imaging",
    "CATEGORY LABEL": "No"
  },
  {
    "MOLECULE": "COc1ccccc1OCC(O)COC(N)=O (stereo not drawn)",
    "TARGET OF ASSAY": "HUVEC TNFalpha-induced E-selectin immunofluorescence imaging",
    "CATEGORY LABEL": "No"
  },
  {
    "MOLECULE": "CN(C(=O)c1ccc2c(=O)n3c(nc2c1)CCCCC3)c1ccccc1",
    "TARGET OF ASSAY": "HUVEC TNFalpha-induced E-selectin immunofluorescence imaging",
    "CATEGORY LABEL": "No"
  },
  {
    "MOLECULE": "Cc1cnc(NC(=O)CSc2nc3ccccc3c(=O)[nH]2)s1",
    "TARGET OF ASSAY": "HUVEC TNFalpha-induced E-selectin immunofluorescence imaging",
    "CATEGORY LABEL": "No"
  },
  {
    "MOLECULE": "COc1ccc2c(C)nc(Nc3nc(C)cc(C)n3)nc2c1",
    "TARGET OF ASSAY": "HUVEC TNFalpha-induced E-selectin immunofluorescence imaging",
    "CATEGORY LABEL": "No"
  }
]
